System: HeLa Kyoto;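 note: HeLa Kyoto cells synchronized by double thymidine or nocodazole block, proteins quantified by TMT10plex mass spectrometry, three independent biological replicates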
Experiment: melting temperature (median over replicates), in situ; higher = more thermally stable
Details: cell cycle stage: G1/S
Measure Name: melting temperature (°C)
Write down the numeric answer in °C and omit the unit.

Per the record, MAALGEPVRLERDICRAIELLEKLQRSGEVPPQKLQALQRVLQSEFCNAVREVYEHVYETVDISSSPEVRANATAKATVAAFAASEGHSHPRVVELPKTEEGLGFNIMGGKEQNSPIYISRIIPGGIADRHGGLKRGDQLLSVNGVSVEGEHHEKAVELLKAAQGKVKLVVRYTPKVLEEMESRFEKMRSAKRRQQT [LIN7C] has melting temperature of 50.1

Per the record, MAQEEEDVRDYNLTEEQKAIKAKYPPVNRKYEYLDHTADVQLHAWGDTLEEAFEQCAMAMFGYMTDTGTVEPLQTVEVETQGDDLQSLLFHFLDEWLYKFSADEFFIPREVKVLSIDQRNFKLRSIGWGEEFSLSKHPQGTEVKAITYSAMQVYNEENPEVFVIIDI [ZBTB8OS] has melting temperature of 52.6

Per the record, METSAPRAGSQVVATTARHSAAYRADPLRVSSRDKLTEMAASSQGNFEGNFESLDLAEFAKKQPWWRKLFGQESGPSAEKYSVATQLFIGGVTGWCTGFIFQKVGKLAATAVGGGFFLLQLANHTGYIKVDWQRVEKDMKKAKEQLKIRKSNQIPTEVRSKAEEVVSFVKKNVLVTGGFFGGFLLGMAS [FUNDC2] has melting temperature of 58.2

Per the record, MAQQQMTSSQKALMLELKSLQEEPVEGFRITLVDESDLYNWEVAIFGPPNTLYEGGYFKAHIKFPIDYPYSPPTFRFLTKMWHPNIYENGDVCISILHPPVDDPQSGELPSERWNPTQNVRTILLSVISLLNEPNTFSPANVDASVMFRKWRDSKGKDKEYAEIIRKQVSATKAEAEKDGVKVPTTLAEYCIKTKVPSNDNSSDLLYDDLYDDDIDDEDEEEEDADCYDDDDSGNEES [UBE2R2] has melting temperature of 51.9

Per the record, MVKLFIGNLPREATEQEIRSLFEQYGKVLECDIIKNYGFVHIEDKTAAEDAIRNLHHYKLHGVNINVEASKNKSKTSTKLHVGNISPTCTNKELRAKFEEYGPVIECDIVKDYAFVHMERAEDAVEAIRGLDNTEFQGKRMHVQLSTSRLRTAPGMGDQSGCYRCGKEGHWSKECPIDRSGRVADLTEQYNEQYGAVRTPYTMSYGDSLYYNNAYGALDAYYKRCRAARSYEAVAAAAASVYNYAEQTLSQLPQVQNTAMASHLTSTSLDPYDRHLLPTSGAAATAAAAAAAAAAVTAASTSYYGRDRSPLRRATAPVPTVGEGYGYGHESELSQASAAARNSLYDMARYEREQYADRARYSAF [RBM4] has melting temperature of 49.6

Per the record, MHPAGLAAAAAGTPRLRKWPSKRRIPVSQPGMADPHQLFDDTSSAQSRGYGAQRAPGGLSYPAASPTPHAAFLADPVSNMAMAYGSSLAAQGKELVDKNIDRFIPITKLKYYFAVDTMYVGRKLGLLFFPYLHQDWEVQYQQDTPVAPRFDVNAPDLYIPAMAFITYVLVAGLALGTQDRFSPDLLGLQASSALAWLTLEVLAILLSLYLVTVNTDLTTIDLVAFLGYKYVGMIGGVLMGLLFGKIGYYLVLGWCCVAIFVFMIRTLRLKILADAAAEGVPVRGARNQLRMYLTMAVAAAQPMLMYWLTFHLVR [YIF1B] has melting temperature of 53.5

Per the record, MAKTYDYLFKLLLIGDSGVGKTCLLFRFSEDAFNTTFISTIGIDFKIRTIELDGKKIKLQIWDTAGQERFRTITTAYYRGAMGIMLVYDITNEKSFDNIKNWIRNIEEHASSDVERMILGNKCDMNDKRQVSKERGEKLAIDYGIKFLETSAKSSANVEEAFFTLARDIMTKLNRKMNDSNSAGAGGPVKITENRSKKTSFFRCSLL [RAB8B] has melting temperature of 55.9

Per the record, MNHLPEDMENALTGSQSSHASLRNIHSINPTQLMARIESYEGREKKGISDVRRTFCLFVTFDLLFVTLLWIIELNVNGGIENTLEKEVMQYDYYSSYFDIFLLAVFRFKVLILAYAVCRLRHWWAIALTTAVTSAFLLAKVILSKLFSQGAFGYVLPIISFILAWIETWFLDFKVLPQEAEEENRLLIVQDASERAALIPGGLSDGQFYSPPESEAGSEEAEEKQDSEKPLLEL [STARD3NL] has melting temperature of 55.4

Per the record, MAAPSGGVNCEEFAEFQELLKVMRTIDDRIVHELNTTVPTASFAGKIDASQTCKQLYESLMAAHASRDRVIKNCIAQTSAVVKNLREEREKNLDDLTLLKQLRKEQTKLKWMQSELNVEEVVNDRSWKVFNERCRIHFKPPKNE [CCDC58] has melting temperature of 53.3

Per the record, MYTFVVRDENSSVYAEVSRLLLATGHWKRLRRDNPRFNLMLGERNRLPFGRLGHEPGLVQLVNYYRGADKLCRKASLVKLIKTSPELAESCTWFPESYVIYPTNLKTPVAPAQNGIQPPISNSRTDEREFFLASYNRKKEDGEGNVWIAKSSAGAKGEGILISSEASELLDFIDNQGQVHVIQKYLEHPLLLEPGHRKFDIRSWVLVDHQYNIYLYREGVLRTASEPYHVDNFQDKTCHLTNHCIQKEYSKNYGKYEEGNEMFFKEFNQYLTSALNITLESSILLQIKHIIRNCLLSVEPAISTKHLPYQSFQLFGFDFMVDEELKVWLIEVNGAPACAQKLYAELCQGIVDIAISSVFPPPDVEQPQTQPAAFIKL [TTL] has melting temperature of 53.9

Per the record, MSGGKYVDSEGHLYTVPIREQGNIYKPNNKAMADELSEKQVYDAHTKEIDLVNRDPKHLNDDVVKIDFEDVIAEPEGTHSFDGIWKASFTTFTVTKYWFYRLLSALFGIPMALIWGIYFAILSFLHIWAVVPCIKSFLIEIQCISRVYSIYVHTVCDPLFEAVGKIFSNVRINLQKEI [CAV1] has melting temperature of 57.3

Per the record, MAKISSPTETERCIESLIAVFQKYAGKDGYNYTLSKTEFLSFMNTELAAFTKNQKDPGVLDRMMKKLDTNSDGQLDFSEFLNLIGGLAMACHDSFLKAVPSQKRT [S100A11] has melting temperature of 53.8

Per the record, ARHGAP21 has melting temperature of 47.6
